Target: human carbonic anhydrase IX (CAIX) (human, UniProt Q16790 38-459)
Test: FACS competition, HT-29 cells, tracer 3BP-4149; pIC50 category A: >8.0
Starred links: 1 amine or outer side, 2 acyl side, 3 side chain; linkers in the order of their positions; H or OH if unused. Positions of bridges follow the written chain, without caps; N, C: chain ends. Non-standard residues stand in square brackets, D forms with d. *: point of attachment. Aph(SaPr) = 4-amino-L-phenylalanine, ring amine acylated by 3-sulfamoylpropanoic acid, NS(=O)(=O)CCC(=O)Nc1ccc(C[C@H](N[*:1])C(=O)[*:2])cc1; Phe(3-NHCO(CH2)3SO2NH2) = N[C@@H](Cc1cccc(NC(=O)CCCS(N)(=O)=O)c1)C(=O)O; DOTA = O=C(O)CN1CCN(CC(=O)O)CCN(CC(=O)*)CCN(CC(=O)O)CC1; mXylylene = c1cc(C[*:1])cc(C[*:2])c1; Dap = NC[C@H](N)C(=O)O
RESULT_TYPE: pIC50

# BINDER, pIC50
measured = [
    ("{DOTA}-DCE[dP]D[Phe(3-NHCO(CH2)3SO2NH2)]LTW[Dap]C-NH2 (lactam 1-10; linker 2-11 via mXylylene; SMILES CC(C)C[C@@H]1NC(=O)[C@H](Cc2cccc(NC(=O)CCCS(N)(=O)=O)c2)NC(=O)[C@H](CC(=O)O)NC(=O)[C@H]2CCCN2C(=O)[C@H](CCC(=O)O)NC(=O)[C@@H]2CSCc3cccc(c3)CSC[C@@H](C(N)=O)NC(=O)[C@H](CNC(=O)C[C@H](NC(=O)CN3CCN(CC(=O)O)CCN(CC(=O)O)CCN(CC(=O)O)CC3)C(=O)N2)NC(=O)[C@H](Cc2c[nH]c3ccccc23)NC(=O)[C@H]([C@@H](C)O)NC1=O) [3BP-4488]", "> 8 pic50"),
]

Proceeding to the next binder to report its pIC50.
For the binder {DOTA}-DCE[dP]D[Aph(SaPr)]LTW[Dap]C-NH2 (lactam 1-10; linker 2-11 via mXylylene; SMILES CC(C)C[C@@H]1NC(=O)[C@H](Cc2ccc(NC(=O)CCS(N)(=O)=O)cc2)NC(=O)[C@H](CC(=O)O)NC(=O)[C@H]2CCCN2C(=O)[C@H](CCC(=O)O)NC(=O)[C@@H]2CSCc3cccc(c3)CSC[C@@H](C(N)=O)NC(=O)[C@H](CNC(=O)C[C@H](NC(=O)CN3CCN(CC(=O)O)CCN(CC(=O)O)CCN(CC(=O)O)CC3)C(=O)N2)NC(=O)[C@H](Cc2c[nH]c3ccccc23)NC(=O)[C@H]([C@@H](C)O)NC1=O) [3BP-4489] , what pIC50 is on record?
> 8 pic50
